# target entity: UniProtKB P22681
# Sequence (P22681 47-435): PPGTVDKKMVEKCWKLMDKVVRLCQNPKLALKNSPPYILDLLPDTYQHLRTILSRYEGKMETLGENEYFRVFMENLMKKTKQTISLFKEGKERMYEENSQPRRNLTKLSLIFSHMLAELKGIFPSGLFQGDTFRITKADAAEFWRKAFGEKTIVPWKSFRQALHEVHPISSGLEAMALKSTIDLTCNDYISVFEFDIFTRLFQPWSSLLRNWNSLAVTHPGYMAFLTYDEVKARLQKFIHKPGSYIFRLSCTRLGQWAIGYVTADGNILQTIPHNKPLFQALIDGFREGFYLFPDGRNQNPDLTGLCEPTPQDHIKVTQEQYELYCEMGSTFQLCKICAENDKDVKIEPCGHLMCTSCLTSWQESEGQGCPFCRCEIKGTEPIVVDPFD
experimental readout: IC50 (nM)

Consider the following illustrative entries.
molecule	observed result
COC[C@@H]1CC1(c1cccc(N2Cc3c(cc(CNC4(C)CCC4)cc3C(F)(F)F)C2=O)c1)c1nncn1C (single isomer, unassigned) [Compound 166]	7200
CCOc1cc([C@]2(c3nncn3C)C[C@H](OC)C2)cc(N2Cc3c(cc(CNC4(C)CCC4)cc3C(F)(F)F)C2=O)n1 [Compound 77]	8.2
C[C@@H](NC1(C)CCC1)c1cc2c(c(C(F)(F)F)c1)CN(c1cccc(C3(c4nncn4C)CC(F)(F)C3)c1)C2=O (single isomer, unassigned) [Compound 174]	6.8
Cn1cnnc1[C@@H](c1cc(F)cc(N2Cc3c(cc(CNC4(C)CCC4)cc3C(F)(F)F)C2=O)c1)C1COC1 (single isomer, unassigned) [Compound 152]	52

I = Cn1cnnc1C(c1cccc(N2Cc3c(cc(CNC4(C)CCC4)cc3C(F)(F)F)C2=O)c1)[C@H]1C[C@@H](CC#N)C1 (single isomer, unassigned) [Compound 362]
II = CO[C@H]1C[C@@](c2cc(NC3CCCC3)cc(N3Cc4c(cc(CNC5(C)CCC5)cc4C(F)(F)F)C3=O)c2)(c2nncn2C)C1 [Compound 218]
Prompt: Could you check which of I and II has a smaller value for IC50? Let me know the label of the one you choose.
Completion: I
(I: 38 nM, II: 810 nM)
